target: Pim-2 (Homo sapiens (Human)); experiment: Pim enzyme assay (HTRF, phosphorylation of biotinylated-BAD (S112) peptide), Pim-2; type: biochemical; conditions: full length recombinant Pim-2, biotinylated-BAD (S112) peptide, HTRF, 96-well; read-out: Pim-2 IC50 IP
Sequence (Q9P1W9 whole entry): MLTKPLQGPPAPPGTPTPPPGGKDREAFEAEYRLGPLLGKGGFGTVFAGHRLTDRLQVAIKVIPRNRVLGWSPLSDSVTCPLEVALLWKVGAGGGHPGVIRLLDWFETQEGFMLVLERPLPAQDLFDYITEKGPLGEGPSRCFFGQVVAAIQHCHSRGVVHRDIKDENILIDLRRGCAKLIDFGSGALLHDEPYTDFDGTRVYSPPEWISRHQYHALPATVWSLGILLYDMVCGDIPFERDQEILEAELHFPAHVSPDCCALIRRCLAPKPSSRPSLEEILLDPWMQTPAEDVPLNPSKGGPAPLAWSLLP
Listing of entries alongside the reported IC50.
# number then unit; no other words

| MOLECULE | EXPERIMENTAL SYSTEM | IC50 |
| --- | --- | --- |
| N[C@H]1CCCN(c2ncncc2Nc2ncc3ccc(-c4c(F)cccc4F)nn23)C1 [Example 36] | Pim-2 (Homo sapiens (Human)) | 110 nM |
| C[C@@H]1C[C@H](N)CN(c2ccncc2Nc2ncc3ccc(-c4ccccn4)nn23)C1 (relative stereo) [Example 63] | Pim-2 (Homo sapiens (Human)) | 1.3 nM |

Prompt line: Give Pim-2 (Homo sapiens (Human)) IC50 for C[C@@H]1CN(c2ccncc2Nc2ncc3ccc(-c4c(F)cccc4F)nn23)C[C@@H](N)[C@H]1O [Example 41]
Response line: 0.5 nM

Prompt line: Provide value of IC50 for this record tested with Pim-2 (Homo sapiens (Human)): C[C@H]1CN(c2ccncc2Nc2ncc3ccc(-c4c(F)cccc4F)nn23)CCN1 [Example 58, bis(2,2,2-trifluoroacetate)]
Response line: 65.9 nM
